# assay-overview: recombinant barcode read abundance after kanamycin selection (control-corrected) (log10(CPM+1)); higher = more efficient recombination; sequences stand for … in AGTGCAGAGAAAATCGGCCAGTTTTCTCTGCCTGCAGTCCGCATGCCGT…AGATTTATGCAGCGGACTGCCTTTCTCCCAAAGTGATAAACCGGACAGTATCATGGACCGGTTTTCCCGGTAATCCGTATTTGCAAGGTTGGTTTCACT; site = the 11-nt target;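 note: IS621 recombinase and bridge RNA in Escherichia coli cells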
Form field: recombinant barcode read abundance (log10) (one value per entry).
readout: recombinant barcode read abundance (log10)

item_sequence="CTCTTGGCTTGGGTTCTAACCTGTTGCCT (site CTCTGGGCTAG)" measured=0.0739
item_sequence="TTCGCATCTTGGGTTCTAACCTGTTGCTT (site TTCGCATCTAA)" measured=0.178
item_sequence="TAGTTTCCTTGGGTTCTAACCTGTTGCGT (site TAGTCTCCTAC)" measured=0.0219
item_sequence="GATAGAGCTTGGGTTCTAACCTGTTGCCG (site GATAGAGCTCG)" measured=0.772
item_sequence="TATACTACTTGGGTTCTAACCTGTTGCCT (site TATACTGCTAG)" measured=0.0258
item_sequence="CAGAGTCCTTGGGTTCTAACCTGTTGCAT (site CAGAGTCCTAT)" measured=1.88
item_sequence="AAGATACCTTGGGTTCTAACCTGTTGCCT (site ATGATACCTAG)" measured=0.0427
item_sequence="CAGCTAACTTGGGTTCTAACCTGTTGCCT (site CAGCTAACTAG)" measured=1.54
item_sequence="AAGGCTTCTTGGGTTCTAACCTGTTGCCT (site AAGGCTTCTAG)" measured=1.4
item_sequence="ACTTAGACTTGGGTTCTAACCTGTTGCCG (site ACTTAGACTAG)" measured=0.287
item_sequence="GCTCAGTCTTGGGTTCTAACCTGTTGCCT (site GCTCAGCCTAG)" measured=0.645
item_sequence="TGATTGACTTGGGTTCTAACCTGTTGCTT (site GATGCACCTCC)" measured=0.194
item_sequence="GAGACAACTTGGGTTCTAACCTGTTGCCT (site GAGACAACTAG)" measured=0.173
item_sequence="CGAGCTCCTTGGGTTCTAACCTGTTGCTT (site CGAGCTCCTAC)" measured=0.0191
item_sequence="CTACGAACTTGGGTTCTAACCTGTTGCTG (site CTACGCACTCA)" measured=0.167
item_sequence="TGGCGAGCTTGGGTTCTAACCTGTTGCCT (site TGGCGAGCTAG)" measured=1.02
item_sequence="TATTATACTTGGGTTCTAACCTGTTGCTT (site TATTATACTAC)" measured=0.116
item_sequence="ACAGGGTCTTGGGTTCTAACCTGTTGCCT (site AAAGGGTCTAG)" measured=0
item_sequence="ACGAGCGCTTGGGTTCTAACCTGTTGCCT (site ACGAGCGCTAG)" measured=1.54
item_sequence="AATGCTCCTTGGGTTCTAACCTGTTGCTT (site AATGCTCCTAT)" measured=0.135
item_sequence="TACGCTCCTTGGGTTCTAACCTGTTGCTT (site TACGCTCCTAG)" measured=0.0812

###

Documented recombinant barcode read abundance (log10) across a set of sequences
# assay-overview: recombinant barcode read abundance after kanamycin selection (control-corrected) (log10(CPM+1)); higher = more efficient recombination; sequences stand for … in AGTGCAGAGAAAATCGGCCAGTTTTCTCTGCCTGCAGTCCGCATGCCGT…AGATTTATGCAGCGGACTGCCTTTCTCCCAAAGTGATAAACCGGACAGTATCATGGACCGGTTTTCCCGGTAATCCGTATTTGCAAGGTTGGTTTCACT; site = the 11-nt target
readout: recombinant barcode read abundance (log10)

item_sequence="TCGCGGCCTTGGGTTCTAACCTGTTGCCT (site GCGCGGCCTAG)" measured=0.1
item_sequence="AGGAATCCTTGGGTTCTAACCTGTTGCTT (site AGGAGTCCTCA)" measured=0.0229
item_sequence="TTGAACTCTTGGGTTCTAACCTGTTGCCT (site TTGAGCTCTAG)" measured=0.0203
item_sequence="CCGTAACCTTGGGTTCTAACCTGTTGCCT (site CCGTAAGCTAG)" measured=0.00896
item_sequence="AAGCGTGCTTGGGTTCTAACCTGTTGCCT (site AAGCGTCCTAG)" measured=0.197
item_sequence="ACTTAGACTTGGGTTCTAACCTGTTGCCG (site ACTTAGACTGG)" measured=0.159
item_sequence="TTCTATCCTTGGGTTCTAACCTGTTGCCT (site TTCTTTCCTAG)" measured=0.094
item_sequence="GGCTCCTCTTGGGTTCTAACCTGTTGCAT (site GGCTCCTCTAT)" measured=0.907
item_sequence="GGGAACCCTTGGGTTCTAACCTGTTGCTC (site GGGAACCCTAA)" measured=0.131
item_sequence="GAAAGTTCTTGGGTTCTAACCTGTTGCCT (site GAAAGTTCTAG)" measured=1.15
item_sequence="TAGCATACTTGGGTTCTAACCTGTTGCCA (site TAGCATACTAG)" measured=0.445
item_sequence="CTAAAACCTTGGGTTCTAACCTGTTGCCT (site TTAAAACCTAG)" measured=0.218
item_sequence="TGTCAAACTTGGGTTCTAACCTGTTGCCT (site TGTCAATCTAG)" measured=0.0654
item_sequence="CTATCGTCTTGGGTTCTAACCTGTTGCCT (site ATATCGTCTAG)" measured=0.0956
item_sequence="GACGGATCTTGGGTTCTAACCTGTTGCTT (site GACGGATCTAT)" measured=0.15
item_sequence="TCCATCCCTTGGGTTCTAACCTGTTGCCT (site TCTATCCCTAG)" measured=0.116
item_sequence="CAAAGATCTTGGGTTCTAACCTGTTGCTT (site CACAGATCTAA)" measured=0.046
item_sequence="GTACATCCTTGGGTTCTAACCTGTTGCGT (site GTACATCCTAC)" measured=2.13
item_sequence="AGTAGTTCTTGGGTTCTAACCTGTTGCAG (site AGTAGTTCTCT)" measured=0.683
item_sequence="TTAGACCCTTGGGTTCTAACCTGTTGCCT (site ATAGACCCTAG)" measured=1.3
item_sequence="GTATGAGCTTGGGTTCTAACCTGTTGCCT (site GTATGAACTAG)" measured=0.475
item_sequence="AGAAGTCCTTGGGTTCTAACCTGTTGCAG (site AGAAGTCCTCA)" measured=0.83
item_sequence="ACACCGTCTTGGGTTCTAACCTGTTGCCT (site AGACCTTCTAG)" measured=0
item_sequence="ACATGGACTTGGGTTCTAACCTGTTGCAT (site ACATGCACTAT)" measured=0.115
item_sequence="AGTCAGTCTTGGGTTCTAACCTGTTGCGT (site AGTCATTCTAT)" measured=0.0526
item_sequence="AAGCACTCTTGGGTTCTAACCTGTTGCCT (site AAGCAATCTAG)" measured=0.195
item_sequence="CCGTAAACTTGGGTTCTAACCTGTTGCCT (site CCGTAAACTAG)" measured=0.35
item_sequence="TTGAGTACTTGGGTTCTAACCTGTTGCCG (site TTGATTACTTG)" measured=0.0556
item_sequence="TAATTAGCTTGGGTTCTAACCTGTTGCCT (site TAATTAGCTAG)" measured=0.435
item_sequence="ATAGACCCTTGGGTTCTAACCTGTTGCCT (site CTAGACCCTAG)" measured=0.918
item_sequence="GAGGGAGCTTGGGTTCTAACCTGTTGCAT (site GAGCGAGCTAT)" measured=0.171
item_sequence="GGACGAGCTTGGGTTCTAACCTGTTGCTG (site GGACGAGCTCA)" measured=2.46
item_sequence="GGCACTACTTGGGTTCTAACCTGTTGCCT (site GGCACGACTAG)" measured=0.166
item_sequence="TAATGGCCTTGGGTTCTAACCTGTTGCGA (site TAATGGCCTTC)" measured=0.942
item_sequence="TAGCCGGCTTGGGTTCTAACCTGTTGCAG (site GAGCCGACTCT)" measured=0.385
item_sequence="AACTAAGCTTGGGTTCTAACCTGTTGCCT (site GGAAGCCCTTA)" measured=0.325
item_sequence="AGGTAGACTTGGGTTCTAACCTGTTGCCA (site AGGGAGACTTG)" measured=0.179
item_sequence="CTGGTCCCTTGGGTTCTAACCTGTTGCGG (site CTGATCCCTCC)" measured=0.983
item_sequence="ATAGGTCCTTGGGTTCTAACCTGTTGCCT (site ATTGGTCCTAG)" measured=0.309
item_sequence="TCAGGTACTTGGGTTCTAACCTGTTGCCT (site ACAGGTACTAG)" measured=0.0983
item_sequence="CTTAGCTCTTGGGTTCTAACCTGTTGCCT (site CTTAGCTCTAG)" measured=1.15
item_sequence="CCACCTTCTTGGGTTCTAACCTGTTGCCT (site AGTTGGCCTTC)" measured=0.161
